Consider the following binders; for each one, report its fold repression.
# measured-target: T1, ECF25_1645
# T1 chain: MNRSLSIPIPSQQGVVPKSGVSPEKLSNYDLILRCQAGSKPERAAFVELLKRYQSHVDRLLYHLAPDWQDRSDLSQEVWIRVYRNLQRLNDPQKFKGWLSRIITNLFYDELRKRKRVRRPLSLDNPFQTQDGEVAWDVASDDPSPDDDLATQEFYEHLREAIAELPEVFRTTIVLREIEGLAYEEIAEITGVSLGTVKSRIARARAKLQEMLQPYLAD

# map each binder to its fold repression
1. AS27_4265 (protein) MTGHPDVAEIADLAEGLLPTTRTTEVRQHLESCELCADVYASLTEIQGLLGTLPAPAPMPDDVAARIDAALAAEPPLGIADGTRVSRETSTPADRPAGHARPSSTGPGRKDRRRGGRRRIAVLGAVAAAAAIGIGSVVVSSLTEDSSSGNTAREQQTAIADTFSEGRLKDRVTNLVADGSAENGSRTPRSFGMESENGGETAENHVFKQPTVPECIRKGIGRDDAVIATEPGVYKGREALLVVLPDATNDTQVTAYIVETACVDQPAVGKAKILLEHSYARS
2. AS33_423 (protein) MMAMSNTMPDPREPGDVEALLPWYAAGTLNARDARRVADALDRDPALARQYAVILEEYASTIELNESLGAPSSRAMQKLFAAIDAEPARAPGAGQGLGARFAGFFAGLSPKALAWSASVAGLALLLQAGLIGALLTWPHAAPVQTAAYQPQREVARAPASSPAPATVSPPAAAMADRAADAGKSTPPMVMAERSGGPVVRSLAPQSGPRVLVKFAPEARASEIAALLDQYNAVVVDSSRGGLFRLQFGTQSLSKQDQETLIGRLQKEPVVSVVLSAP

1.02
3.68
